Where do these numbers come from? They come from patent US20240294551A1.

- assayed_target: His-tagged KRAS G12D protein (Homo sapiens (Human), UniProt P01116, G12D)
- Sequence (P01116 other isoform, or with tags, fused parts or gaps G12D): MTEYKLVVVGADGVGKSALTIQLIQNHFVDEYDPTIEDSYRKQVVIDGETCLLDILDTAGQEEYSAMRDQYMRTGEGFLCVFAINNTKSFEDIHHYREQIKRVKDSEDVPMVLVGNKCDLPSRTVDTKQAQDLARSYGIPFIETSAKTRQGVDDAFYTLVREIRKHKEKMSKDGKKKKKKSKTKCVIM
- experimental_protocol: KRAS G12D TR-FRET Assay
- Assay type: binding
- condition_context: read-out: KRAS G12D Binding IC50
pIC50: −log10 of the molar value.
readout_label: pIC50

O=C1CCCc2c(F)ccc3cccc(c23)-c2ncc3c(nc(OC[C@@]45CCCN4C[C@H](F)C5)nc3c2F)N2CCC[C@H](C2)N1 [Example 68, 2,2,2-trifluoroacetate]    7.48
Cc1cc2[nH]ncc2c2c1CCCOC(=O)O[C@@H]1CCCCN(C1)c1nc(OC[C@@H]3C[C@@H](F)CN3C)nc3c(F)c-2ncc13    7.89
O=C1OCC[C@H]2CCc3cc4[nH]ncc4c(c32)-c2ncc3c(nc(OC[C@@]45CCCN4C[C@H](F)C5)nc3c2F)N2CCOC[C@H](C2)O1    5.91
Fc1c2ncc3c(nc(OC[C@@]45CCCN4C[C@H](F)C5)nc13)N1CCO[C@@H](CCOCCCc3c(Cl)cc4[nH]ncc4c3-2)C1    7.20
O=C1OCCCc2c(Cl)cc3[nH]ncc3c2-c2ncc3c(nc(OCC45CCCN4CCC5)nc3c2F)N2CCOC[C@H](C2)O1    8.70
Cc1cc2[nH]ncc2c2c1CCCCO[C@H](C)[C@@H]1CN(CCO1)c1nc(OC[C@@]34CCCN3C[C@H](F)C4)nc3c(F)c-2ncc13    5.35

P: O=C1COCCc2c(Cl)cc3[nH]ncc3c2-c2ncc3c(nc(OC[C@@]45CCCN4C[C@H](F)C5)nc3c2F)N2CC[C@H]3CCN1[C@H]3C2
Q: Cc1cc2[nH]ncc2c2c1CC(C)COC(=O)O[C@@H]1CCCN(C1)c1nc(OC[C@@]34CCCN3C[C@H](F)C4)nc3c(F)c-2ncc13 (some centres unmarked)
Query: Please indicate which has the smaller reported pIC50: P , or Q . Choose, then provide that item's label.
Response: Q

1: O=C1OCCc2c(Cl)cc3[nH]ncc3c2-c2ncc3c(nc(OC[C@@]45CCCN4C[C@H](F)C5)nc3c2F)N2CCOCC(CO1)C2 (some centres unmarked)
2: C[C@H](Oc1nc2c3cnc(c(F)c3n1)-c1c(c(Cl)cc3[nH]ncc13)CCCOC(=O)O[C@@H]1COCCN2C1)[C@@H]1CCCN1C
Query: Problem: Given the entries 1 and 2 , determine which has the lower reported pIC50. Give the label under which the chosen entry appears.
Response: 2
(2: 7.47, 1: 8.22)

----------
- assayed_target: GDP-bound KRAS protein (aa 1-169), containing both G12D and C118A amino acid substitutions (Homo sapiens (Human), UniProt P01116, C118A/G12D)
- Sequence (P01116 other isoform, or with tags, fused parts or gaps G12D/C118A): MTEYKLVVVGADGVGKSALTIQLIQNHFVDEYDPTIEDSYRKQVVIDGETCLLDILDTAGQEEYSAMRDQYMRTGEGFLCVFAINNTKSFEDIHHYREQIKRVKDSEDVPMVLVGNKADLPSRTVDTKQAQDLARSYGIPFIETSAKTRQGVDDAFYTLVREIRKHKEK
- experimental_protocol: KRAS G12D Coupled Nucleotide Exchange Assay
- Format: biochemical
- condition_context: read-out: KRAS G12D Coupled Exchange IC50
readout_label: IC50 (nM)

a: Fc1c2ncc3c(nc(OC[C@@]45CCCN4C[C@H](F)C5)nc13)N1CCC[C@@H](COCCOCc3c(Cl)cc4[nH]ncc4c3-2)C1 [Example 142]
b: O=C1CCCCc2c(Cl)cc3[nH]ncc3c2-c2ncc3c(nc(OC[C@@]45CCCN4C[C@H](F)C5)nc3c2F)N2CCC3CN1[C@H]3C2 (mixture of isomers) [Example 164]
Query: Which of the two gives a bigger number for IC50: a or b ? Return value: the label identifying the chosen record.
Response: a
(a: 15 nM, b: 7 nM)
